Ref: paper PMC8222254

System: PSN1
Experiment: Chemosensitivity, 96 h continuous exposure, MTT assay
Type: cell-based, human
Details: IC50 MCF10A / IC50 PSN1
label 1 if Selectivity index (MCF10A) is below 7. label 0 if not; exact matches included in label 0.

Query: Determine whether this compound shows Selectivity index (MCF10A) lower than 7 (ties excluded): CC(=O)[O-].CC(=O)[O-].CC(=O)[O-].O=P([O-])([O-])[O-].[Zn+2].[Zn+2].[Zn+2].c1ccc(-c2csc(NCCN(CCNc3nc(-c4ccccn4)cs3)CCNc3nc(-c4ccccn4)cs3)n2)nc1.c1ccc(-c2csc(NCCN(CCNc3nc(-c4ccccn4)cs3)CCNc3nc(-c4ccccn4)cs3)n2)nc1 [[L2Zn3(PO4)]3+]
Response: label 1

----------
Tested on: ARPE-19 non-cancer cells
Experiment: Chemosensitivity, 96 h continuous exposure, MTT assay
Format: cell-based, human
Details: Homo sapiens, ARPE-19, ARPE-19 non-cancer; read-out: Mean IC50 values
MEASURED METRIC: pIC50
Answers are plain numbers, as −log10 of the molar value.

Query: Requested field: pIC50. Item: c1ccc(-c2csc(NCCN(CCNc3nc(-c4ccccc4)cs3)CCNc3nc(-c4ccccc4)cs3)n2)cc1
Response: 5.27

----------
System: H460
Test: Chemosensitivity, 96 h continuous exposure, MTT assay
Type: cell-based, human
Conditions: ratio of SI (MCF 10A), H460
For each record, write down the corresponding Selectivity indices relative to MCF10A, Ratio + anion:no anion.
Give bare numbers.

{"MOLECULE": "O=P([O-])([O-])[O-].[Cu+2].[Cu+2].[Cu+2].c1ccc(-c2csc(NCCN(CCNc3nc(-c4ccccn4)cs3)CCNc3nc(-c4ccccn4)cs3)n2)nc1.c1ccc(-c2csc(NCCN(CCNc3nc(-c4ccccn4)cs3)CCNc3nc(-c4ccccn4)cs3)n2)nc1 [[L2Cu3(PO4)]3+]", "RECORDED VALUE": 0.200}

Let's switch to this molecule now.
Query: For the molecule O=S(=O)(O)O.[Zn+2].[Zn+2].[Zn+2].c1ccc(-c2csc(NCCN(CCNc3nc(-c4ccccn4)cs3)CCNc3nc(-c4ccccn4)cs3)n2)nc1.c1ccc(-c2csc(NCCN(CCNc3nc(-c4ccccn4)cs3)CCNc3nc(-c4ccccn4)cs3)n2)nc1 [[L2Zn3(SO4)]4+] , what Selectivity indices relative to MCF10A, Ratio + anion:no anion is on record?
Response: 1.128

----------
Tested on: HT-29
Assay: Chemosensitivity, 96 h continuous exposure, MTT assay
Assay type: cell-based, human
Settings: ratio of IC50, HT29
MEASURED METRIC: Relative potency (+ anion to no anion), Ratio + anion:no anion
Numbers only.

{"COMPOUND": "CC(=O)[O-].CC(=O)[O-].CC(=O)[O-].O=P([O-])([O-])[O-].[Zn+2].[Zn+2].[Zn+2].c1ccc(-c2csc(NCCN(CCNc3nc(-c4ccccn4)cs3)CCNc3nc(-c4ccccn4)cs3)n2)nc1.c1ccc(-c2csc(NCCN(CCNc3nc(-c4ccccn4)cs3)CCNc3nc(-c4ccccn4)cs3)n2)nc1 [[L2Zn3(PO4)]3+]", "RECORDED VALUE": 1.27}

Now, please, on to the next compound.
Query: Could you tell me which Relative potency (+ anion to no anion), Ratio + anion:no anion is on file for O=P([O-])([O-])Oc1ccccc1.[Cu+2].[Cu+2].[Cu+2].c1ccc(-c2csc(NCCN(CCNc3nc(-c4ccccn4)cs3)CCNc3nc(-c4ccccn4)cs3)n2)nc1.c1ccc(-c2csc(NCCN(CCNc3nc(-c4ccccn4)cs3)CCNc3nc(-c4ccccn4)cs3)n2)nc1 [[L2Cu3(O3POPh)]4+] ?
Response: 3.25
